Target: human vascular endothelial growth factor receptor 2 (VEGF-R2) (Homo sapiens, UniProt P35968, DEL940-989/E990V)
Construct: VEGF-R2D50 contains residues 806-939 and 990-1171
Sequence (P35968 with tags, fused parts or gaps DEL940-989/E990V limits assumed): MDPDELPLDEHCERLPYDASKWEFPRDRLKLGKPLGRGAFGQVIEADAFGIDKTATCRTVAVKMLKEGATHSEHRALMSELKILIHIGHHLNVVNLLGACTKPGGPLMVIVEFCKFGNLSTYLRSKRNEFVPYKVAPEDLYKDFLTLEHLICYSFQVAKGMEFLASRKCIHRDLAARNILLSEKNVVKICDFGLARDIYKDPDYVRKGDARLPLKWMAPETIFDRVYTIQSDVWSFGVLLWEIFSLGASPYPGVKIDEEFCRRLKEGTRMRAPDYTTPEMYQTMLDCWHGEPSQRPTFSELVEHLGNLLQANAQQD
Experiment: VEGF-R2 coupled spectrophotometric assay (FLVK)
Settings: unphosphorylated VEGF-R2D50 (FLVK)
pKi: −log10 of the molar value.
experimental.readout: pKi

INSERT INTO results (molecule, result) VALUES
  ('O=C(NCCCN1CCCC1)c1cccc2cc(Oc3ccnc4ccsc34)ccc12', '< 8.00'),
  ('CNC(=O)c1cccc2cc(Oc3ccnc4cc(C(=O)N5CC[C@@H](N(C)C)C5)sc34)ccc12', '8.00 to 9.00'),
  ('CNC(=O)c1cccc2cc(Oc3ccnc4cc(C(=O)N(C)CCO)sc34)ccc12', '8.00 to 9.00'),
  ('O=C(NCCCN1CCOCC1)c1cccc2cc(Oc3ccnc4ccsc34)ccc12', '8.00 to 9.00'),
  ('O=C(NCCN1CCOCC1)c1cccc2cc(Oc3ccnc4cc(C(=O)N5CC[C@@H](O)C5)sc34)ccc12', '> 9.00');

[in] Name the recorded pKi of the molecule listed here: CNCC1CCN(C(=O)c2cc3nccc(Oc4ccc5c(C(=O)NC)cccc5c4)c3s2)C1 (stereo not drawn)
[out] > 9.00

[in] Please supply the value of reported pKi for the item `CNC(=O)c1cccc2cc(Oc3ccnc4cc(OCCN5CCCCC5)ccc34)ccc12`
[out] 8.00 to 9.00

[in] Identify pKi associated with the molecule `Cn1ccnc1-c1cc2nccc(Oc3ccc4c(C(=O)NCCN5CCOCC5)cccc4c3)c2s1`
[out] > 9.00

[in] Tell me measured pKi for `CNC(=O)c1cccc2cc(Oc3ccnc4cc(OCCN5CCOCC5)ccc34)ccc12` please.
[out] > 9.00

[in] Report pKi, nothing else, for this molecule: `COc1ccc2c(Oc3ccc4c(C(=O)NC5CC5)cccc4c3)ccnc2c1`
[out] > 9.00

[in] Identify the reported pKi for the following entry. `O=C(NCCN1CCOCC1)c1cccc2cc(Oc3ccnc4ccsc34)ccc12`
[out] 8.00 to 9.00

[in] Specify reported pKi for the molecule shown: `CCCCNC(=O)c1cccc2cc(Oc3ccnc4cc(OCCN5CCCC5)ccc34)ccc12`
[out] 8.00 to 9.00

[in] Provide one value: measured pKi of `O=C(NCCN1CCOCC1)c1cccc2cc(Oc3ccnc4cc(C(=O)N5CCC5)sc34)ccc12`
[out] > 9.00

[in] Query pKi for `Cn1ccnc1-c1cc2nccc(Oc3ccc4c(C(=O)NCCCN5CCOCC5)cccc4c3)c2s1`
[out] > 9.00

[in] Provide one value: measured pKi of `CNC(=O)c1cccc2cc(Oc3ccnc4cc(C(=O)N(C)C)sc34)ccc12`
[out] > 9.00

---

Test system: human umbilical vein endothelial cells (HUVEC)
Assay: HUVEC+VEGF Proliferation Assay
Type: cell-based
Settings: VEGF-stimulated proliferation, final VEGF 6 ng/mL, 72 hours, MTT dye reduction
pIC50: −log10 of the molar value.
This listing pairs molecules with measured pIC50.

INSERT INTO results (molecule, experimental_readout, result) VALUES
  ('COc1ccc2c(Oc3ccc4c(C(=O)NC5CC5)cccc4c3)ccnc2c1 [Example 51]', 'pIC50', '8.00 to 9.00');

[in] # return recorded pIC50 for entry CNC(=O)c1cccc2cc(Oc3ccnc4cc(C(=O)N(C)CCCN(C)C)sc34)ccc12 [Example 7]
[out] < 8.00

[in] State, in one line, measured pIC50 of CNC(=O)c1cccc2cc(Oc3ccnc4cc(OCCN5CCOCC5)ccc34)ccc12 [Example 45]
[out] > 9.00

Source: patent US20050070508A1
